B1: Azoarcus group I ribozyme (parent)
chain: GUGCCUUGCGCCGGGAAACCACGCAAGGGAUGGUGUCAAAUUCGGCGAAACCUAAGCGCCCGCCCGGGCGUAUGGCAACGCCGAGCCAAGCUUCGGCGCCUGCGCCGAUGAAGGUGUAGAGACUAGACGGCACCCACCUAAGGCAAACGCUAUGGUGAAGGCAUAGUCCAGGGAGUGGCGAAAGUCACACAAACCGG

variants of: B1; assay: reverse-splicing fitness (ratio to wild type); higher = more active; in vitro selection; Mg2+ level not given
value.kind: reverse-splicing fitness

## Task reverse-splicing fitness lookup needed for C82A A111U A120C A145U C150A C169G U176C , thanks.
## Result 0.0263

## Task Ok, now C82U A111G A120U A145G C150U C169A U176A
## Result 0.00487

## Task Ok, now C82A A111G A120C A145G C169U U176G
## Result 0.00528

## Task Ok, now A111U A120G C169A
## Result 0.116

## Task Ok, now A111U A120U A145C C150A C169A
## Result 0.00256

## Task Ok, now C82G A111C A120U A145C C150U U176C
## Result 0.00491

## Task Ok, now C82G A111G A120C C150G U176A
## Result 0.00594

## Task Ok, now A120U C150A C169U
## Result 0.038

## Task Ok, now A111U A120U A145G C150G U176G
## Result 0.00387

## Task Ok, now C82U A145C C150U C169G U176A
## Result 0.0158

## Task Ok, now C82U A111U A120G C150U C169A U176A
## Result 0.0156

## Task Ok, now C82U A111C A120U A145U C169A
## Result 0.00238

## Task Ok, now C82G A111U A120G C150G C169G U176G
## Result 0.00471

## Task Ok, now C82A A111G A120U A145G C150U C169G U176A
## Result 0.0115

## Task Ok, now C82A A111G A120C A145U C150A C169A U176G
## Result 0.00712

## Task Ok, now A111U A120C C150A C169A U176A
## Result 0.0178

## Task Ok, now C82G A111U A120G C150G C169A U176G
## Result 0.00726

## Task Ok, now C82G A111U A120G A145U C169A U176G
## Result 0.00445

## Task Ok, now C82A A111C A145C C169A U176A
## Result 0.0135

## Task Ok, now C82G A145G C150G C169A U176C
## Result 0.0144

## Task Ok, now C82A A145C C150G C169U U176A
## Result 0.00823

## Task Ok, now C82U A111G A120U A145G C150G
## Result 0.00906
